Cited source: patent US20180338980A1

Biological target: P2X4 (Homo sapiens, UniProt Q99571)
Sequence (Q99571 whole entry): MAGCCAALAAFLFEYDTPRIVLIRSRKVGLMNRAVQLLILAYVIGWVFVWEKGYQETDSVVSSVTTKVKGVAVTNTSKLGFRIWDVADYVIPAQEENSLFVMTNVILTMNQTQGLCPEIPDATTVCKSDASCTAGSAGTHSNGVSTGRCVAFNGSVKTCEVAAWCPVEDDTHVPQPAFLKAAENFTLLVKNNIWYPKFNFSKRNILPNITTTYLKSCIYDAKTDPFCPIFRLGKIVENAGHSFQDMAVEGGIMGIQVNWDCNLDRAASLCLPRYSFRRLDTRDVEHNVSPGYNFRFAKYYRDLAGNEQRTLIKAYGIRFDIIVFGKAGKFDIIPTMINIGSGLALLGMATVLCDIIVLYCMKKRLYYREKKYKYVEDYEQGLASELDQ
Test: Assay A: human P2X4 receptor cell line, FLIPR calcium assay (Fluo-8, agonist Bz-ATP at EC80)
Assay type: cell-based
Set-up: host or cells: HEK 293 (recombinant, constitutively expressing; with mitochondrial photina in Assay B)
Conditions: percentage of maximal inhibition; HEK human P2X4 cells, Fluo-8 FLIPR; read-out: human P2X4 Assay A avg Efficacy

Molecule smiles: NS(=O)(=O)c1cc(NC(=O)Cc2c(Cl)cccc2Cl)ccc1Oc1cccc(Cl)c1
Assayed target: P2X4 (Homo sapiens, UniProt Q99571)
Emax: 78%
--
Molecule smiles: COc1cccc(COc2ccc(NC(=O)Cc3ccccc3Cl)cc2S(N)(=O)=O)c1
Assayed target: P2X4 (Homo sapiens, UniProt Q99571)
Emax: 103%
--
Molecule smiles: NS(=O)(=O)c1cc(NC(=O)Cc2ccccc2Cl)ccc1Oc1cccc(C(F)(F)F)c1
Assayed target: P2X4 (Homo sapiens, UniProt Q99571)
Emax: 94%
--
Molecule smiles: NS(=O)(=O)c1cc(NC(=O)Cc2ccccc2Cl)ccc1Oc1cccnc1
Assayed target: P2X4 (Homo sapiens, UniProt Q99571)
Emax: 75%
